Tested on: B. subtilis KCTC1021
assay explanation: Ultrasensitive radial diffusion assay (URDA), antimicrobial activity
Format: cell-based, Bacillus subtilis
condition context: B. subtilis KCTC1021, Gram +
Protocol: Four species of Gram positive bacteria (Bacillus subtilis, Staphylococcus epidermidis, […] and Propionibacterium acnes), five species of Gram negative bacteria (E. coli D31, E. coli ML35p, Shigella flexneri, Pseudomonas aeruginosa and Vibrio parahaemolyticus) and one yeast species (Candida albicans) were used for experiments. The antimicrobial activity was measured by ultrasensitive radial diffusion assay (URDA) using two layers of media of different concentrations. […]
Ends that are not written are not given here.
readout label: Minimal effective concentration (µg/mL)
State just the number; it will be interpreted in µg/mL.

KLLLKLLKKLL-NH2 [SEQ ID NO 8, KLLLKLLKKLL]: 10.3
LKWLLKLLKLK-NH2 [SEQ ID NO 11, LKWLLKLLKLK]: 12.1
AAWKLLKALAKA-NH2 [SEQ ID NO 1, AAWKLLKALAKA]: 20.0
LLWKLLKLLLK-NH2 [SEQ ID NO 2, LLWKLLKLLLK]: 16.0
FFHHIFRGIVHVGKTIHRLVTG-NH2 [Piscidin 1, reference compound]: 7.5

Log: B. subtilis KCTC1021, substance LLWKLLKKLLK-NH2 [SEQ ID NO 3, LLWKLLKKLLK] , Minimal effective concentration = 14.0

Noted Minimal effective concentration for KLLKKLLKLL-NH2 [SEQ ID NO 9, KLLKKLLKLL] , tested on B. subtilis KCTC1021: 15.7

# lookup: KLLLKLLKLL-NH2 [SEQ ID NO 7, KLLLKLLKLL] on B. subtilis KCTC1021, Minimal effective concentration = 11.2

Reported B. subtilis KCTC1021 Minimal effective concentration for item KLALKLLKLL-NH2 [SEQ ID NO 5, KLALKLLKLL] was 15.2
